Values were extracted from patent US10738007B2.

assay: Pharmacokinetic activity in mice; assay type: in vivo; conditions: mouse, plasma, IV - 1 mg/kg
Readout Name: C0 (ng/mL)
Report the value in ng/mL with no unit label.

| Compound | Readout Name | Unit | Recorded Value |
| --- | --- | --- | --- |
| O=C(NC1CCCC1)c1cccc([C@@H](CO)NC(=O)c2ccc(-c3ccncc3)cc2)c1 [Compound 10] | C0 | ng/mL | 7000 |

Looking for the measured C0 of C[C@@H](NC(=O)c1ccc(-c2ccncc2)cc1)c1cccc(C(=O)NC2CCCC2)c1 [Compound 36] , can you help?
5910

# iterate: CN1CCc2ccc(NC(=O)c3cccc([C@@H](CO)NC(=O)c4ccc(-c5ccncc5)cc4)c3)cc2C1 [Compound 7]
411

* * *

Here's a batch of compounds along with measured IC50 for ROCK1 (Homo sapiens (Human)).
Reply with just the number (in nM).

Examples from the recorded data:
| Compound | Recorded Value |
| --- | --- |
| O=C(NCC1CCCCC1)c1cccc([C@@H](CO)NC(=O)c2ccc(-c3ccncc3)cc2)c1 | 3.1 |
| CCOc1cc(-c2cn[nH]c2)ccc1C(=O)N[C@H](C)c1cccc(C(=O)NC2CCCC2)c1 | 1.51 |
| COc1cc(-c2cn[nH]c2)ccc1C(=O)N[C@H](CO)c1cccc(C(=O)NC2CCCC2)c1 | 3.2 |

Form field: reported IC50 of CN1CCc2ccc(NC(=O)c3cccc(CNC(=O)c4ccc(-c5ccncc5)cc4)c3)cc2C1 [Compound B, reference compound]
9.9

* * *

tested on: K562 cell line; test: Cell viability assay ([…]-GLO), K562; type: cell-based; conditions: Homo sapiens; K562 (does not express ITD-FLT3), 72 hours treatment
Readout Name: IC50 (µM)
Give the number; µM is assumed, so skip it.

Observe how each entry below is paired with its result.
| Compound | Recorded Value |
| --- | --- |
| O=C(NC1CCCCC1)c1cccc([C@@H](CO)NC(=O)c2ccc(-c3ccncc3)cc2)c1 [Compound 26] | 48 |
| C[C@@H](NC(=O)c1ccc(-c2cn[nH]c2)cc1)c1cccc(C(=O)NC2CCCC2)c1 [Compound 97] | 17 |
| CN1CCc2ccc(NC(=O)c3cccc([C@@H](CO)NC(=O)c4ccc(-c5ccncc5)cc4)c3)cc2C1 [Compound 7] | 20.4 |
| CN1CCC(CNC(=O)c2cccc([C@@H](CO)NC(=O)c3ccc(-c4ccncc4)cc3)c2)CC1 [Compound 23] | 56 |

Look up IC50 with K562 cell line for this compound: O=C(NC1CCCC1)c1cccc([C@@H](CO)NC(=O)c2ccc(-c3cn[nH]c3)cc2)c1 [Compound 46]
11

Lookup CCOc1cc(-c2cn[nH]c2)ccc1C(=O)N[C@H](CO)c1cccc(C(=O)NC2CCCC2)c1 [Compound 101]
15

Next entry: O=C(NC1CCCC1)c1cccc([C@@H](CO)NC(=O)c2ccc(-c3ccncc3)cc2)c1 [Compound 10]
17

* * *

assay: Pharmacokinetic activity in mice; format: in vivo; settings: mouse, plasma, IV - 1 mg/kg
Readout Name: Tmax (min)
Your answer is read as min, so omit the unit and give the number.

| Molecule Smiles | Tmax [min] |
| --- | --- |
| C[C@@H](NC(=O)c1ccc(-c2ccncc2)cc1)c1cccc(C(=O)NC2CCCC2)c1 | 15 |

Recorded Tmax for CN1CCc2ccc(NC(=O)c3cccc([C@@H](CO)NC(=O)c4ccc(-c5ccncc5)cc4)c3)cc2C1 , please?
15

O=C(NC1CCCC1)c1cccc([C@@H](CO)NC(=O)c2ccc(-c3ccncc3)cc2)c1 , same question.
15
